In this section, each of the compounds is paired with its reported Int (fluorescence emission).
Subject of test: UniProtKB C7BDZ6
Sequence (C7BDZ6 entry or part of it): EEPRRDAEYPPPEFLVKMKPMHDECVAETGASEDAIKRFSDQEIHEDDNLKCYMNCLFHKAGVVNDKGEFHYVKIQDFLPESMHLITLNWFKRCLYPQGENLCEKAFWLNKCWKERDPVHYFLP
Test details: biochemical
Assay type: binding
Study conditions: CquiOBP2; residual NPN fluorescence, normalized to 100 prior to ligand; screen at 2–20 μM ligand
Protocol: Binding affinity (Ban et al., [2002]) was tested with a panel of 34 compounds, including attractants, a mosquito oviposition pheromone, repellents, terpenoids and other putative mosquito attractants or repellents. […] Fluorescence spectra were recorded in a right angle configuration on a spectrofluorimeter (RF-5301, Shimadzu, Kyoto, Japan) at room temperature using a 1 cm light path fluorimeter quartz cuvette. […]
// return a plain number; no unit text

### Prompt // lookup Int (fluorescence emission) for CCN(CC)C(=O)c1cccc(C)c1 [DEET, N,N-diethyl-3-methylbenzamide]
### Response 96

### Prompt // lookup Int (fluorescence emission) for COC(=O)c1ccccc1O [Methyl salicylate, methyl salicylate]
### Response 72

### Prompt // lookup Int (fluorescence emission) for CC/C=C\CCOC(C)=O [(Z)-3-Hexenyl acetate, (Z)-3-hexenyl acetate]
### Response 93

### Prompt // lookup Int (fluorescence emission) for CCCCCCCCCC[C@H](OC(C)=O)[C@H]1CCCC(=O)O1 [MOP, (5R,6S)-6-acetoxy-5-hexadecanolide]
### Response 86

### Prompt // lookup Int (fluorescence emission) for C=CC(C)(O)CCC=C(C)C (centres unmarked) [Linalool, linalool]
### Response 97

### Prompt // lookup Int (fluorescence emission) for CCCCCCCCC=O [Nonanal, nonanal]
### Response 87

### Prompt // lookup Int (fluorescence emission) for CCc1ccc(O)cc1 [4-Ethylphenol, 4-ethylphenol]
### Response 91

### Prompt // lookup Int (fluorescence emission) for CCCCN(CCC(=O)OCC)C(C)=O [IR3535, ethyl 3-[acetyl(butyl)amino]propanoate]
### Response 90

* * *

In this section, each of the molecules is paired with its reported Int (fluorescence emission).
Subject of test: CquiOBP1 (Culex quinquefasciatus)
Sequence (Q8T6I2 entry or part of it): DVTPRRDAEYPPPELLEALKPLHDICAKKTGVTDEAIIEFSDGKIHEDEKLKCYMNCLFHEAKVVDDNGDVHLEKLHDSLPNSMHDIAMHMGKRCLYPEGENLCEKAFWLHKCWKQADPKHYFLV
Test details: biochemical
Assay type: binding
Study conditions: CquiOBP1; residual NPN fluorescence, normalized to 100 prior to ligand; screen at 2–20 μM ligand
Procedure: Binding affinity (Ban et al., [2002]) was tested with a panel of 34 compounds, including attractants, a mosquito oviposition pheromone, repellents, terpenoids and other putative mosquito attractants or repellents. […] Fluorescence spectra were recorded in a right angle configuration on a spectrofluorimeter (RF-5301, Shimadzu, Kyoto, Japan) at room temperature using a 1 cm light path fluorimeter quartz cuvette. […]

Answered cases to consult:
Molecule	Observed result
C=CC(C)(O)CCC=C(C)C (centres unmarked)	91
CCOC(=O)Cc1ccccc1 [Ethyl 2-phenylacetate, ethyl 2-phenylacetate]	92
Cc1c[nH]c2ccccc12	75

### Prompt // lookup Int (fluorescence emission) for CC1CCC(C(C)(C)O)C(O)C1 (centres unmarked)
### Response 80

### Prompt // lookup Int (fluorescence emission) for CCN(CC)C(=O)c1cccc(C)c1 [DEET, N,N-diethyl-3-methylbenzamide]
### Response 82

### Prompt // lookup Int (fluorescence emission) for COC(=O)c1ccccc1O [Methyl salicylate, methyl salicylate]
### Response 87

### Prompt // lookup Int (fluorescence emission) for `CC(=O)c1ccccc1`
### Response 88

### Prompt // lookup Int (fluorescence emission) for CC12CCC(CC1=O)C2(C)C (centres unmarked)
### Response 90
